meta.source: patent US20130129722A1

The entries below come with measured pKd values attached.
Molecular target: Dimeric Mouse Ang-2FD conjugated to human IgG1 (mouse (Mus musculus))
Sequence (chain, as listed by the source limits assumed): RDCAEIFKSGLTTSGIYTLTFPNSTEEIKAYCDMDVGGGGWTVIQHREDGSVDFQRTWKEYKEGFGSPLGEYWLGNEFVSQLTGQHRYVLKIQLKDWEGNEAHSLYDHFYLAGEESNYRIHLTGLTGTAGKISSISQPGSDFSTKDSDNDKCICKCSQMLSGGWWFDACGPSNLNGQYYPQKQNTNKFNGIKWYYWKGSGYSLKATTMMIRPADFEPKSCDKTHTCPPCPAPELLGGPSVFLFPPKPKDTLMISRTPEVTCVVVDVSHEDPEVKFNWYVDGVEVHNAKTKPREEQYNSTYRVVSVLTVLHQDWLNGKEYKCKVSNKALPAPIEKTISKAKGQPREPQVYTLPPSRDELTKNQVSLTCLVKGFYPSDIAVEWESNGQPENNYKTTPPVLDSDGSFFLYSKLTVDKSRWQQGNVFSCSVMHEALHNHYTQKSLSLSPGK
Experiment: SPR, human IgG1 antibody captured
FYI, pKd means -log10 of a concentration in mol per litre.

These solved cases illustrate the format of a correct answer.
H1H732N (antibody, V domains shown) VH: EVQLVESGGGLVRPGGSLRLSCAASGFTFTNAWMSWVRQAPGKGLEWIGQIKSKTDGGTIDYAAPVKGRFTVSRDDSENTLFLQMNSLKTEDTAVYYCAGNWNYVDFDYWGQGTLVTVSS VL: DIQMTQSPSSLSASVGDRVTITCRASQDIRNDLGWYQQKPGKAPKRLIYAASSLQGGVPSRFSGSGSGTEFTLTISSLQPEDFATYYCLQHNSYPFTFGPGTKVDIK | 9.28
H1H742N (antibody, V domains shown) VH: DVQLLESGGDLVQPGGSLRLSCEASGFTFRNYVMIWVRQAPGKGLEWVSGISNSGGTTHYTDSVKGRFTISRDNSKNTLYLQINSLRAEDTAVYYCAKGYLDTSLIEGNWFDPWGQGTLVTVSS VL: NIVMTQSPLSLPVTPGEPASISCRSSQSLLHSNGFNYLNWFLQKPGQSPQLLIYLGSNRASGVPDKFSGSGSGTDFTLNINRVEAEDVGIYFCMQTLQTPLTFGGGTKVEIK | 9.56
H1H743N (antibody, V domains shown) VH: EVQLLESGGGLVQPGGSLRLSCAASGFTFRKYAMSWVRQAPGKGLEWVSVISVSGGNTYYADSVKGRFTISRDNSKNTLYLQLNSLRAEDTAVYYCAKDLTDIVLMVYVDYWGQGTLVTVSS VL: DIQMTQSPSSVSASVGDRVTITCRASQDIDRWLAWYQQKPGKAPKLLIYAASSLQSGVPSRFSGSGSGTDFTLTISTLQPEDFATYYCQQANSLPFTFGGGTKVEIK | 9.91
H1H728N (antibody, V domains shown) VH: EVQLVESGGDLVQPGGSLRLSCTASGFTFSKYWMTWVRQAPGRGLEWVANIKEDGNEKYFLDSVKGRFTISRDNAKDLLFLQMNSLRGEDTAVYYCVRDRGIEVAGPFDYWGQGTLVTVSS VL: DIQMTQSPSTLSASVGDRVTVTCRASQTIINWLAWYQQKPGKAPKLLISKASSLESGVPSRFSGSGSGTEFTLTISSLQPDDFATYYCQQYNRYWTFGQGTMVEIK | 8.24

Note: attention shifts to another entry.
Can you share its pKd? I mean this binder: H1H750N (antibody, V domains shown) VH: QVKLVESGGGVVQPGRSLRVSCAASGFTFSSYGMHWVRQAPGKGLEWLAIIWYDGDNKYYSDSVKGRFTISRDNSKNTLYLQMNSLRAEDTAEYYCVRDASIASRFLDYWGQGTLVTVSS VL: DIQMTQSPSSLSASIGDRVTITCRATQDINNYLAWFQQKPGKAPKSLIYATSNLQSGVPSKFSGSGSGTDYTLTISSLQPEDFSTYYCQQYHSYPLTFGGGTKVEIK
9.66
